Please go through the items and note down their Ratio.
assay: Ratio of relative Vmax values to that of apparent Km values.; format: ADME

## Task Please report Ratio for the following compound: Nc1nc(O)c2c(n1)NCC(NCc1ccc(C(=O)NC(CCC(=O)O)C(=O)O)cc1)C2 (centres undefined)
## Result 1

## Task Name the recorded Ratio of the item CN(Cc1ccc(C(=O)NC(CCC(=O)O)C(=O)O)cc1)c1cnc2nc(N)nc(O)c2c1 (centres undefined) in your answer.
## Result 0.85

## Task Supply reported Ratio belonging to this compound: `Nc1nc(N)c(CCCNc2ccc(C(=O)N[C@@H](CCC(=O)O)C(=O)O)cc2)c(O)n1`
## Result 14.9

## Task Name the recorded Ratio of the item CN(Cc1ccc(C(=O)NC(CCC(=O)O)C(=O)O)cc1)C1CNc2nc(N)nc(O)c2C1 (centres undefined) in your answer.
## Result 7
